The origin of these recorded values is PubChem BioAssay AID1508600.

- test name: Components of the Cytosolic LPS Sensing Pathway: Gene Identification via Genome-wide siRNA Screen;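 further: robust z of the log signal after scaling to non-targeting control siRNA wells of the plate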
- recorded conditions: RAW264.7 macrophages, IL-1a HTRF, actives lie on both sides, screened at 100 nM (by protocol), cells primed 5 h with Pam3CSK4 first
The campaign covered roughly 53,000 sequences. About 3,700 (7%) were called active. The full list was thinned out, with actives kept by preference.
Assign class by z-score: not lower than -0.5 means yes (1); lower than -0.5 means no (0).

1) GCCUGAAUUCCACUACUCGTT against Def8: yes (1)
2) GCUACUGCAGUAUACAUUGTT against Olfr869: yes (1)
3) GGCAUUCUGAAAAAAUAGCTT against Rb1cc1: no (0)
4) GCGAAUGUGUGUAUUCUGGTT against BC055324: no (0)
5) CCUAUGGUGCUCUUAUAAATT against Dpp6: yes (1)
6) GGGCCAACCCAGAAAAACATT against Plekha7: no (0)
7) GGCAUACCUGGAGAAGUGUTT against Prr5l: no (0)
8) GGGUACGUGAAGAAACUUCTT against Meig1: no (0)
9) GGGCAUUAAGACAAAGAGUTT against Fam3c: yes (1)
10) GCCAACGAGAGUAAACACGTT against 5930403N24Rik: yes (1)
11) GGUGCUGGAGAAGAACAUGTT against Map2k3: yes (1)
12) GCUGGGUCCACAUGAAUCATT against Sucnr1: yes (1)
13) GGACCAUUCUGGCUACUCATT against Ankrd34b: no (0)
14) GGAUAGUUUUGUGUUUGAUTT against Gab2: yes (1)
15) GUUACAGUAUUCUAUGGGATT against Olfr1080: yes (1)
16) GGCGGAUUGAAUAAGAAGGTT against Pfn2: no (0)
17) GACACUGUCAAAUUAUGGATT against Vmn1r74: no (0)
18) CCUUAGGUACUCUAAGGAATT against D1Pas1: yes (1)
